tested on: unfed adult fleas (Ctenocephalides felis); assay: Ctenocephalides felis; oral (CTECFE); assay type: in vivo; settings: Example J; 4 ppm active compound in citrated cattle blood, oral uptake
In this section, each of the compounds is paired with its reported Kill rate in % after 2 days.
Give just the numeric value; % need not be written.

Record excerpt, results attached:
compound CC[C@H](C)[C@H]1OC2(C=C[C@@H]1C)C[C@@H]1C[C@@H](C/C=C(\C)[C@@H](OC3CC(OC)C(OC(=O)CN(C)C)C(C)O3)[C@@H](C)/C=C/C=C3\CO[C@@H]4[C@H](O)C(C)=CC(C(=O)O1)[C@]34O)O2 (some centres unmarked) [Example 57] , Kill rate in % after 2 days observed: 40

compound CC[C@H](C)[C@H]1OC2(C=C[C@@H]1C)C[C@@H]1C[C@@H](C/C=C(\C)[C@@H](OC3CC(OC)C(OC(=O)Cc4nn(C)c(=O)n4C)C(C)O3)[C@@H](C)/C=C/C=C3\CO[C@@H]4[C@H](O)C(C)=CC(C(=O)O1)[C@]34O)O2 (some centres unmarked) [Example 60] , Kill rate in % after 2 days observed: 50

compound COC1CC(OC2C(C)=CCC3CC(CC4(CCC(C)C(C(C)C)O4)O3)OC(=O)C3C=C(C)C(O)C4OCC(=CC=CC2C)C34O)OC(C)C1OC(C)=O (centres unmarked) [reference compound] , Kill rate in % after 2 days observed: 20

compound CC[C@H](C)[C@H]1OC2(C=C[C@@H]1C)C[C@@H]1C[C@@H](C/C=C(\C)[C@@H](OC3CC(OC)C(OC(=O)C(C)N4CCOCC4)C(C)O3)[C@@H](C)/C=C/C=C3\CO[C@@H]4[C@H](O)C(C)=CC(C(=O)O1)[C@]34O)O2 (some centres unmarked) [Example 52] , Kill rate in % after 2 days observed: 50

For the next question, use this compound.
compound CC[C@H](C)[C@H]1OC2(C=C[C@@H]1C)C[C@@H]1C[C@@H](C/C=C(\C)[C@@H](OC3CC(OC)C(OC(=O)CN4CCCCC4)C(C)O3)[C@@H](C)/C=C/C=C3\CO[C@@H]4[C@H](O)C(C)=CC(C(=O)O1)[C@]34O)O2 (some centres unmarked) [Example 50] , Kill rate in % after 2 days observed: 50
